Values from patent US11566007B2

- Target Under Test: K-Ras G12C (Homo sapiens (Human), UniProt P01116+P62937, G12C)
- Sequence (P01116-2 other isoform, or with tags, fused parts or gaps G12C): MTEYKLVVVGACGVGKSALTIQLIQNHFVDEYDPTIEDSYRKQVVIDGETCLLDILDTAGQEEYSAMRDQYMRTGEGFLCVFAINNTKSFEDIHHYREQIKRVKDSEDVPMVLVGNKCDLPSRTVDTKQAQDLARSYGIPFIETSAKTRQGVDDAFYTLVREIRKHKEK
- Sequence (P62937 whole entry): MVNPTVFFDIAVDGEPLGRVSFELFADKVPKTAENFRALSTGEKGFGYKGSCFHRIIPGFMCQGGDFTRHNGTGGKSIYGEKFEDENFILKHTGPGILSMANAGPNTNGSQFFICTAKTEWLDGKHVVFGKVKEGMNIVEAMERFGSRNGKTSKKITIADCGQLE
- Protocol Notes: Ras-Raf (BRAF RBD) disruption / FRET / MOA assay, KRAS G12C
- Type: biochemical
- Measurement Context: KRAS G12C; Ras-Raf disruption/FRET/MOA assay; read-out: IC50* KRAS G12C FRET data
Reported IC50 values for a set of molecules

See these solved cases before continuing.
>  <Molecule>
C=CC(=O)NC1CN(C(=O)N(C)[C@H](C(=O)N[C@H]2Cc3nc(cs3)-c3ccc4c(c3)c(c(-c3cccnc3[C@H](C)OC)n4CC)CC(C)(C)COC(=O)[C@@H]3CCCN(N3)C2=O)C(C)C)C1 (atropisomer, axis not shown)

>  <IC50>
10 to 100 nM

$$$$
>  <Molecule>
C=CC(=O)N1CC[C@]2(C1)OCN([C@H](C(=O)N[C@H]1Cc3cc(cc(C(F)F)c3)-c3ccc4c(c3)c(c(-c3cccnc3[C@H](C)OC)n4CC)CC(C)(C)COC(=O)[C@@H]3CCCN(N3)C1=O)C(C)C)C2=O (atropisomer, axis not shown)

>  <IC50>
100 to 1000 nM

$$$$
>  <Molecule>
C=CC(=O)N1CC[C@H](C(=O)N(C)[C@H](C(=O)N[C@H]2Cc3cccc(c3)-c3ccc4c(c3)c(c(-c3cnccc3COC)n4CC)CC(C)(C)COC(=O)[C@@H]3CCCN(N3)C2=O)C(C)C)C1 (atropisomer, axis not shown)

>  <IC50>
100 to 1000 nM

$$$$
>  <Molecule>
CO[C@@H](C)c1ncccc1-c1c2c3cc(ccc3n1CC(F)(F)F)-c1cccc(c1)C[C@H](NC(=O)[C@H](C(C)C)N(C)C(=O)N1CCC3(CC1)CN(C(=O)/C=C/CN(C)C)C3)C(=O)N1CCC[C@H](N1)C(=O)OCC(C)(C)C2 (atropisomer, axis not shown)

>  <IC50>
100 to 1000 nM

$$$$

So what's the measured IC50 for this one? C=CC(=O)N1CCC12CCN(C(=O)N(C)[C@H](C(=O)N[C@H]1Cc3nc(cs3)-c3ccc4c(c3)c(c(-c3cccnc3[C@H](C)OC)n4CC)CC(C)(C)COC(=O)[C@@H]3CCCN(N3)C1=O)C(C)C)CC2 (atropisomer, axis not shown) 100 to 1000 nM

Try this molecule too: CCn1c(-c2cccnc2[C@H](C)OC)c2c3cc(ccc31)-c1cccc(c1)C[C@H](NC(=O)[C@@H](COC1CN(C(=O)C#C[C@H]3COCCN3C)C1)C(C)C)C(=O)N1CCC[C@H](N1)C(=O)OCC(C)(C)C2 (atropisomer, axis not shown) 10 to 100 nM

Then what about the molecule CO[C@@H](C)c1ncccc1-c1c2c3cc(ccc3n1CC(F)(F)F)-c1cc(cc(C(F)F)c1)C[C@H](NC(=O)[C@H](C(C)C)N(C)C(=O)[C@H]1CCN(C(=O)C#CC(C)(C)N3CCC3)C1)C(=O)N1CCC[C@H](N1)C(=O)OCC(C)(C)C2 (atropisomer, axis not shown) ? 10 to 100 nM

* * *

- Target Under Test: KRAS G12S (Homo sapiens (Human), UniProt P01116+P62937, G12S)
- Sequence (P01116-2 other isoform, or with tags, fused parts or gaps G12S): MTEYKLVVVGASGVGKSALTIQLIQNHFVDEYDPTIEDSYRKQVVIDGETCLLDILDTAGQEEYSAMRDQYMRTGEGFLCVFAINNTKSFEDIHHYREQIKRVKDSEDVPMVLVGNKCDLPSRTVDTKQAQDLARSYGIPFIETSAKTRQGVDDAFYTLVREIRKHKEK
- Sequence (P62937 whole entry): as the sequence (P62937 whole entry) above
- Protocol Notes: Ras-Raf (BRAF RBD) disruption / FRET / MOA assay, KRAS G12S
- Type: biochemical
- Measurement Context: Ras-Raf disruption/FRET/MOA assay; class symbols; read-out: KRAS G12S FRET data IC50
Quantity Kind: IC50

>  <Compound>
C=CC(=O)N1C[C@@H](N(C)C(=O)N(C)[C@H](C(=O)N[C@H]2Cc3nc(cs3)-c3ccc4c(c3)c(c(-c3cccnc3[C@H](C)OC)n4CC)CC(C)(C)COC(=O)[C@@H]3CCCN(N3)C2=O)C(C)C)[C@@H](C)C1 (atropisomer, axis not shown)

>  <IC50>
100 to 1000 nM

$$$$
>  <Compound>
CCn1c(-c2cccnc2[C@H](C)OC)c2c3cc(ccc31)-c1cnc(o1)C[C@H](NC(=O)[C@H](C(C)C)N(C)C(=O)[C@H]1CCN(C(=O)C#CC(C)(C)N(C)C)C1)C(=O)N1CCC[C@H](N1)C(=O)OCC(C)(C)C2 (atropisomer, axis not shown)

>  <IC50>
1000 to 10000 nM

$$$$

Param item = C=CC(=O)N1CC[C@@]2(CCN(C(=O)N(C)[C@H](C(=O)N[C@H]3Cc4nc(cs4)-c4ccc5c(c4)c(c(-c4cccnc4[C@H](C)OC)n5CC)CC(C)(C)COC(=O)[C@@H]4CCCN(N4)C3=O)C(C)C)C2)C1 (atropisomer, axis not shown) ; retrieve measured IC50. 10 to 100 nM

Ok, now C=CC(=O)N1CC(OC[C@H](C(=O)N[C@H]2Cc3nc(cs3)-c3ccc4c(c3)c(c(-c3cccnc3[C@H](C)OC)n4CC)CC(C)(C)COC(=O)[C@@H]3CCCN(N3)C2=O)C(C)C)C1 (atropisomer, axis not shown) 1000 to 10000 nM

And C=CC(=O)N1C[C@@H](C)N(C(=O)N(C)[C@H](C(=O)N[C@H]2Cc3nc(cs3)-c3ccc4c(c3)c(c(-c3cccnc3[C@H](C)OC)n4CC)CC(C)(C)COC(=O)[C@@H]3CCCN(N3)C2=O)C(C)C)[C@H](C)C1 (atropisomer, axis not shown) ? 10 to 100 nM

Now give it for C/C=C(\C)S(=O)(=O)N1CC[C@H](C(=O)N(C)[C@H](C(=O)N[C@H]2Cc3cccc(c3)-c3ccc4c(c3)c(c(-c3cccnc3[C@H](C)OC)n4CC)CC(C)(C)COC(=O)[C@@H]3CCCN(N3)C2=O)C(C)C)C1 (atropisomer, axis not shown) too. > 10000 nM

# iterate: C=CC(=O)N1CC[C@H](C(=O)N(C)[C@H](C(=O)N[C@H]2Cc3ncc(n3C)-c3ccc4c(c3)c(c(-c3cccnc3[C@H](C)OC)n4CC)CC(C)(C)COC(=O)[C@@H]3CCCN(N3)C2=O)C(C)C)C1 (atropisomer, axis not shown) > 10000 nM
